Target: Sodium-dependent dopamine transporter (Rattus norvegicus, UniProt P23977)
Sequence (P23977 whole entry): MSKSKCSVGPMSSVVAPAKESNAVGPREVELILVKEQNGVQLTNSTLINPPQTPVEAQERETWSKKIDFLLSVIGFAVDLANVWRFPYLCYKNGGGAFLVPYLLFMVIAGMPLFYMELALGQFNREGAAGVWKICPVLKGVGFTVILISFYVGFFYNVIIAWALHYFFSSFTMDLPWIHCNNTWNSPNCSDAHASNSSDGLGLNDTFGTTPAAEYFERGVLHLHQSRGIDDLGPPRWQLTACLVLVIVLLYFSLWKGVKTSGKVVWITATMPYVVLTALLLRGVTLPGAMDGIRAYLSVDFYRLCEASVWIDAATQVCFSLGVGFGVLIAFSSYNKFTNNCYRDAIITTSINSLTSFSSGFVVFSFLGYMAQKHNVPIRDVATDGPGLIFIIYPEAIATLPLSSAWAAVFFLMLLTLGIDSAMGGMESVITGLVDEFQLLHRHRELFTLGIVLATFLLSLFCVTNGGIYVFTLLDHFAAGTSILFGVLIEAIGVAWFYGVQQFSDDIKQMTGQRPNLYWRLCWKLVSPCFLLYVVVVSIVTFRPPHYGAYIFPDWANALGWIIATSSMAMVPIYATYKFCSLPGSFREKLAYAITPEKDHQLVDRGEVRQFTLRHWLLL
Assay: Inhibition of [3H]3-beta-(p-fluorophenyl)tropane-2beta-carboxylic acid methyl ester binding to Dopamine transporter in rat striatal membranes.
Give pIC50 for every item shown.
Give bare numbers, as −log10 of the molar value.

Consider the following illustrative entries.
I have this compound here, CN1[C@@H]2CC[C@H]1C[C@H](OC(=O)c1ccccc1)C2 , and I need its recorded pIC50.
5.29

I have this compound here, CN1C2CC[C@@H]1C[C@H](OC(=O)c1ccccc1)C2C(=O)OCCc1ccccc1 (stereo partly drawn) , and I need its recorded pIC50.
6.61

I have this compound here, CN1C2CC[C@@H]1C[C@H](OC(=O)c1ccccc1)C2C(=O)OCCc1ccc(N=[N+]=[N-])cc1 (stereo partly drawn) , and I need its recorded pIC50.
6.64

I have this compound here, CC(=O)OCC1C2CC[C@H](C[C@@H]1OC(=O)c1ccccc1)N2C (stereo partly drawn) , and I need its recorded pIC50.
6.57

I have this compound here, CN1C2CC[C@@H]1C[C@H](OC(=O)c1ccccc1)C2C(=O)Oc1ccccc1 (stereo partly drawn) , and I need its recorded pIC50.
6.95

Dear colleague, could you please provide pIC50 for the compounds listed below?
1. CN1C2CC[C@@H]1C[C@H](OC(=O)c1ccccc1)C2CO (stereo partly drawn)
2. CCCOC(=O)C1C2CC[C@H](C[C@@H]1OC(=O)c1ccccc1)N2C (stereo partly drawn)
3. CN1C2CC[C@@H]1C[C@H](OC(=O)c1ccccc1)C2C(=O)OCCc1ccc(Cl)cc1 (stereo partly drawn)
4. CN1C2CC[C@@H]1C[C@H](OC(=O)c1ccccc1)C2C(=O)OC/C=C/c1ccccc1 (stereo partly drawn)
5. CCOC(=O)CCC(=O)Nc1ccc(CCOC(=O)C2C3CC[C@H](C[C@@H]2OC(=O)c2ccccc2)N3C)cc1 (stereo partly drawn)

[6.25, 6.72, 6.57, 6.43, 7.07]

Dear colleague, could you please provide pIC50 for the compounds listed below?
1. CCOC(=O)C1C2CC[C@H](C[C@@H]1OC(=O)c1ccccc1)N2C (stereo partly drawn)
2. CN1C2CC[C@@H]1C[C@H](OC(=O)c1ccccc1)C2C(=O)OCCc1ccc([N+](=O)[O-])cc1 (stereo partly drawn)
3. CN1C2CC[C@@H]1C[C@H](OC(=O)c1ccccc1)C2C(=O)OCCCc1ccccc1 (stereo partly drawn)

[6.89, 6.22, 6.86]
